Tested on: HT-29
Test: NCI tumour cell line growth inhibition, 48 h
The source made the active and inactive calls. Rule as the data show it: active = GI50 up to about 1.1 µM and inactive = higher.

COMPOUND: C=C1C(=O)OC2/C=C(\C)C3OC3/C=C(/C(=O)OC)C(OC(C)=O)C(OC(=O)C(C)(O)C(C)OC(C)=O)C12 (stereo unspecified)
GI50: 1.29 µM (inactive)
//
COMPOUND: CNC(=O)Oc1ccc(-c2cn3cc(OC(=O)NC)ccc3n2)cc1
GI50: 41.5 µM (inactive)
//
COMPOUND: C=C1CCN2CC[C@@H](OC(=O)/C(C)=C\C)[C@@H]12
GI50: 66.2 µM (inactive)
//
COMPOUND: Cc1nc(C)c(N2CCNCC2)c(O)n1
GI50: > 100 µM (inactive)
//
COMPOUND: Cc1ccc2c(=O)cc(Cc3cccs3)[nH]c2n1
GI50: > 100 µM (inactive)
//
COMPOUND: O=S(=O)(O)c1ccc(Nc2ccnc3cc(Cl)ccc23)cc1
GI50: > 100 µM (inactive)
//
COMPOUND: CC(C)(C)c1cc(C(CO)OCCOCCO)cc(C(C)(C)C)c1O (stereo unspecified)
GI50: > 100 µM (inactive)
//
COMPOUND: O=C(CCC(=O)Nc1ccc(Cl)c(Cl)c1)CC(=O)c1ccc(Cl)cc1
GI50: > 100 µM (inactive)
//
COMPOUND: C=CC[C@@]1([C@H](C=C)COCc2ccc(OC)cc2)CC[C@]2(C)OC(C)(C)[C@@H](c3ccccc3)N2C1=S
GI50: 29 µM (inactive)
//
COMPOUND: CCC(C)n1c(C)nc2c1C(=O)c1ccccc1C2=O (stereo unspecified)
GI50: 40.4 µM (inactive)
//
COMPOUND: COC(=O)C(C(=O)C(=O)Nc1ccc(OC)cc1[N+](=O)[O-])c1nc2cc(C)c(C)cc2nc1O (stereo unspecified)
GI50: > 100 µM (inactive)
